Study system: Glucocorticoid receptor (Homo sapiens, UniProt P04150)
Sequence (P04150 whole entry): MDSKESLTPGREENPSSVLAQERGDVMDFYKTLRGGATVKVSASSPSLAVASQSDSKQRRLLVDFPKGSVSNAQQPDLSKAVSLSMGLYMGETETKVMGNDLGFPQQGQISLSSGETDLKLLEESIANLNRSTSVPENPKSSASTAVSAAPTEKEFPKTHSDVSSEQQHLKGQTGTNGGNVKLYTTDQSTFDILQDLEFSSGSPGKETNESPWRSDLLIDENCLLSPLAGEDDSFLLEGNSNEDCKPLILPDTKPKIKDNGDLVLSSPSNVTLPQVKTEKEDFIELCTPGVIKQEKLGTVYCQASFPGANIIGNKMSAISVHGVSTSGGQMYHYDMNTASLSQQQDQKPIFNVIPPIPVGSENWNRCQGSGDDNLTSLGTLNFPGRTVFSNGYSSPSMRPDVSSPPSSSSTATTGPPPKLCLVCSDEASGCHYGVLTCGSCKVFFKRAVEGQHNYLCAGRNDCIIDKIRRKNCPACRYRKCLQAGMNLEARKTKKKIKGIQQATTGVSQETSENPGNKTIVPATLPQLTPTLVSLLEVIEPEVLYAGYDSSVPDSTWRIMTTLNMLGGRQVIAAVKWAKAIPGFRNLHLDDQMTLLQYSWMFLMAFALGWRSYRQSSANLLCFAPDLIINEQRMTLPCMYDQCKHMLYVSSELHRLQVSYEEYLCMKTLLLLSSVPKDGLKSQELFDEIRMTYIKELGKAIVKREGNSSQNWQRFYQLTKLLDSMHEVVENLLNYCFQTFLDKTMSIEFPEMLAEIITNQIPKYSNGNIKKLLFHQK
pKi: −log10 of the molar value.
Recorded endpoint: pKi

The cases that follow already have their pKi on record.
Compound: CC1=CC(C)(C)Nc2ccc3c(c21)C(c1cccc(C(F)(F)F)c1)Oc1ccccc1-3 (stereo not given)
pKi: 7.36

Compound: CC1=CC(C)(C)Nc2ccc3c(c21)C(c1ccccc1)Oc1ccccc1-3 (stereo not given)
pKi: 6.81

Compound: CC1=CC(C)(C)Nc2ccc3c(c21)C(c1ccc(Cl)cc1)Oc1ccccc1-3 (stereo not given)
pKi: 6.82

[a] CC1=CC(C)(C)Nc2ccc3c(c21)C(c1ccc(Cl)c(F)c1)Oc1ccccc1-3 (stereo not given)
[b] CC1=CC(C)(C)Nc2ccc3c(c21)C(c1ccc(Cl)c(C)c1)Oc1ccccc1-3 (stereo not given)
### Prompt Out of a and b , name the one with the higher pKi. Please reply using the label of the selected record.
### Response a
